# Lookup of reported Membrane retention coefficient (MRC), WASH 6 keyed by entry
System: red blood cell ghosts (plasma membrane)
Experiment: Membrane retention coefficient (MRC) in red blood cell ghosts
Format: binding
Conditions: wash 6
Experimental: Determination of Membrane Retention Coefficient The membrane retention coefficient (MRC) provides information regarding how well a given compound is retained in the plasma membrane of a cell and is determined as described below. […] wherein CT represents the amount of compound present (in units determined by the method used to assay the compound) in the total sample and CS represents the amount of compound present in the supernatant sample for that particular time point. […]
# output: bare number, no unit

>>> df
                                   compound  reported_measurement
0  CCCCCCCCCCCCCCCCCCCCN1C(=CC=Cc2oc3ccccc3[n+]2CCC)Oc2ccccc21                 98.40
1  CCCCCCCCCCCCCCN1C(=CC=Cc2oc3ccccc3[n+]2CCC)Oc2ccccc21                 77.92
2  CCCCCCCCCCCCCCCCCCCCCC[n+]1c2cc(N(C)C)ccc2cc2ccc(N(C)C)cc21                 99.22
3  CCCCCCCCCCCCCCCCCCCCCCN1C(=CC=Cc2oc3ccccc3[n+]2CCC)Oc2ccccc21 [K]                 99.46
4  CCCCCN1C(=CC=CC2=[N+](CCCCC)c3ccccc3C2(C)C)C(C)(C)c2ccccc21                 17.48
5  CCCCCCCCCCCCCCCCCCN1C(=CC=Cc2oc3ccccc3[n+]2CCC)Oc2ccccc21                 97.17
6  CCCCCCCCCCCCCCCCCCCCCCN1C(=CC=Cc2oc3ccccc3[n+]2CCC)Oc2ccccc21 [G]                 98.34
7  CCCCCCCCCCCCCCN1C(=CC=CC2=[N+](CCCCCCCCCCCCCC)c3ccccc3C2(C)C)C(C)(C)c2ccccc21                 99.12

Q: Which Membrane retention coefficient (MRC), WASH 6 value is on record for "CCCCCCCCCCCCCCCCCCCCCCCCCC[n+]1c2cc(N(C)C)ccc2cc2ccc(N(C)C)cc21" ?
Ans: 98.88

Q: Now consider "CCCCCCCCCCCCCCCCCCN1C(=CC=Cc2oc3ccccc3[n+]2CCCCC)Oc2ccccc21" and answer again.
Ans: 97.56

Q: Record: "CCCCCCCCCCCCCCCCCC[n+]1c2cc(N(C)C)ccc2cc2ccc(N(C)C)cc21"
Ans: 97.01

Q: Further, for "CCCCCCCCCCN1C(=CC=CC2=[N+](CCCCCCCCCC)c3ccccc3C2(C)C)C(C)(C)c2ccccc21" ?
Ans: 94.80

Q: Now give it for "CCCCCCCCCCCCCCCCCCN1C(=CC=Cc2oc3ccccc3[n+]2CCCCCCCC)Oc2ccccc21" too.
Ans: 99.73

Q: // same read-out, input: CCC[n+]1c(C=CC=C2Oc3ccccc3N2CCC(C)CCCC(C)CCCC(C)CCCC(C)C)oc2ccccc21 (centres unmarked)
Ans: 96.64
